Below, each entry is listed alongside its reported selectivity ratio.
- experiment.description: Selectivity ratio of CC50 for cytotoxicity against African green monkey Vero cells to MIC for antifungal activity against Cryptococcus gattii NR 43209
- Format: toxicity, cell-based
API doc: respond with a numeric literal and nothing else, no unit.

Asked: What value of measured selectivity ratio is listed for Cc1nc(-c2ccc3ccccc3c2)sc1-c1nnc(N[C@@H]2CCCC[C@H]2N)o1 (relative stereo) ?
Given back: 64

Asked: Suppose we examine the compound Cc1nc(-c2ccc3ccccc3c2)sc1-c1nnc(N[C@@H]2CCCC[C@@H]2N)o1 (relative stereo) ; what selectivity ratio value has been reported?
Given back: 64

* * *

- experiment.description: Selectivity ratio of CC50 for cytotoxicity against African green monkey Vero cells to MIC for antifungal activity against Cryptococcus neoformans NR 48773
- Assay type: toxicity, cell-based
Here the recorded selectivity ratio is given for each entry.
No unit in the answer, only the number.

Asked: Value lookup for selectivity ratio; key = Cc1nc(-c2ccc3ccccc3c2)sc1-c1nnc(N[C@@H]2CCCC[C@H]2N)o1 (relative stereo)
Given back: 64

Switching to the query record.
Asked: Entry Cc1nc(-c2ccc3ccccc3c2)sc1-c1nnc(N[C@@H]2CCCC[C@@H]2N)o1 (relative stereo) has what selectivity ratio?
Given back: 64
